Target or system: RhoC (Homo sapiens)
Method: [3H]GDP displacement of 6-TGDP from .NO2-treated 6-TGDP-loaded GTPase with/without DTT (FIG. 13B)
Assay type: binding
Set-up: made in house; host or cells: E. coli
Recorded conditions: presence of DTT; calculated by compensation equation; read-out: trueKD [3H]GDP
Measured metric: pKd
Lab note: report pKd as minus log10 of the concentration in molar units, number only.

Give the measured pKd of Nc1nc2c(ncn2[C@@H]2O[C@H](COP(=O)(O)OP(=O)(O)O)[C@@H](O)[C@H]2O)c(=O)[nH]1 [GDP] . 3.29

----------
Target or system: RhoC (Homo sapiens, UniProt P08134)
Sequence (P08134 whole entry): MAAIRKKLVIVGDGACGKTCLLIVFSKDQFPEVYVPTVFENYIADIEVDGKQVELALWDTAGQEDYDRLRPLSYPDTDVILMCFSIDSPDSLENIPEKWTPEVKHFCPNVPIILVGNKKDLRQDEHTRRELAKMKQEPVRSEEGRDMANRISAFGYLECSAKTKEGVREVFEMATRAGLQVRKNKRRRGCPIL
Method: Competitive binding assay, [3H]GDP-loaded Rho protein titrated with 6-TGDP (FIG. 16A)
Design: made in house; host or cells: E. coli
Recorded conditions: calculated by compensation equation; FIG. 16A; read-out: trueKD for 6-TGDP
Measured metric: pKd
Lab note: report pKd as minus log10 of the concentration in molar units, number only.

Query for RhoC (Homo sapiens, UniProt P08134): what pKd does the record show for Nc1nc2c(ncn2[C@@H]2O[C@H](COP(=O)(O)OP(=O)(O)O)[C@@H](O)[C@H]2O)c(=S)[nH]1 [6-TGDP, 6-thioguanosine diphosphate] ? 4.95
